Tested on: Rattus norvegicus
test method notes: The glycemia values 30 minutes after glucose administration to streptozotocin rats
Type: functional
readout kind: G30 (%)
Hi! Could you send only the number? It should be in %, unit omitted.

IN: For Rattus norvegicus, provide G30 of CN1CCN(Cc2ccccc2Cl)C(C2=NCCN2)C1 (stereo not drawn) please.
OUT: 103

IN: For Rattus norvegicus, provide G30 of CN1CCN(Cc2ccccc2Cl)CC1C1=NCCN1 (stereo not drawn) please.
OUT: 97

IN: For Rattus norvegicus, provide G30 of Cc1ccccc1CN1CCN(C)CC1C1=NCCN1 (stereo not drawn) please.
OUT: 48

IN: For Rattus norvegicus, provide G30 of CN1CCN(Cc2ccc(F)cc2F)C(C2=NCCN2)C1 (stereo not drawn) please.
OUT: 106

IN: For Rattus norvegicus, provide G30 of CN1CCN(Cc2cc(Cl)cc(Cl)c2)C(C2=NCCN2)C1 (stereo not drawn) please.
OUT: 70

IN: For Rattus norvegicus, provide G30 of CCCN1CCN(Cc2ccc(Cl)cc2Cl)C(C2=NCCN2)C1 (stereo not drawn) please.
OUT: 80

IN: For Rattus norvegicus, provide G30 of CN1CCN(Cc2c(Cl)cccc2Cl)C(C2=NCCN2)C1 (stereo not drawn) please.
OUT: 59

IN: For Rattus norvegicus, provide G30 of CN1CCN(Cc2ccccc2C(F)(F)F)C(C2=NCCN2)C1 (stereo not drawn) please.
OUT: 64

IN: For Rattus norvegicus, provide G30 of Clc1ccccc1CN1CCNCC1C1=NCCN1 (stereo not drawn) please.
OUT: 0

IN: For Rattus norvegicus, provide G30 of CN1CCN(Cc2ccc(Cl)cc2Cl)C(C2=NCCN2)C1 (stereo not drawn) please.
OUT: 112

IN: For Rattus norvegicus, provide G30 of COc1ccccc1CN1CCN(C)CC1C1=NCCN1 (stereo not drawn) please.
OUT: 56

IN: For Rattus norvegicus, provide G30 of CN1CCN(Cc2ccc(Cl)cc2Cl)CC1C1=NCCN1 (stereo not drawn) please.
OUT: 102

IN: For Rattus norvegicus, provide G30 of CN1CCN(Cc2ccccc2F)C(C2=NCCN2)C1 (stereo not drawn) please.
OUT: 52

----------
System: Rattus norvegicus
test method notes: The glycemia values 30 minutes after glucose administration to streptozotocin rats
Assay type: functional
readout kind: G30 (%)
Hi! Could you send only the number? It should be in %, unit omitted.

IN: Find the recorded G30 belonging to CN1CCN(Cc2ccccc2)C(C2=NCCN2)C1 (configuration not stated) and report it.
OUT: 23

IN: Find the recorded G30 belonging to CC(C)CN1CCN(Cc2ccc(Cl)cc2Cl)C(C2=NCCN2)C1 (configuration not stated) and report it.
OUT: 95

IN: Find the recorded G30 belonging to CCCN1CCN(Cc2ccccc2Cl)C(C2=NCCN2)C1 (configuration not stated) and report it.
OUT: 17

IN: Find the recorded G30 belonging to c1ccc2c(c1)OCC(C1=NCCN1)O2 (configuration not stated) and report it.
OUT: 48

IN: Find the recorded G30 belonging to CCN1CCN(Cc2ccccc2Cl)CC1C1=NCCN1 (configuration not stated) and report it.
OUT: 50

IN: Find the recorded G30 belonging to Clc1ccc(CN2CCN(Cc3ccc(Cl)cc3Cl)C(C3=NCCN3)C2)c(Cl)c1 (configuration not stated) and report it.
OUT: 18

IN: Find the recorded G30 belonging to CN1CCN(Cc2ccc(Cl)c(Cl)c2)C(C2=NCCN2)C1 (configuration not stated) and report it.
OUT: 47

IN: Find the recorded G30 belonging to CC(C)N1CCN(Cc2ccccc2Cl)CC1C1=NCCN1 (configuration not stated) and report it.
OUT: 96

IN: Find the recorded G30 belonging to Clc1ccccc1CN1CCN(Cc2ccccc2Cl)C(C2=NCCN2)C1 (configuration not stated) and report it.
OUT: 0

IN: Find the recorded G30 belonging to c1ccc(CN2CCN(Cc3ccccc3)C(C3=NCCN3)C2)cc1 (configuration not stated) and report it.
OUT: 33

IN: Find the recorded G30 belonging to CN1CCN(Cc2ccc(Cl)cc2)C(C2=NCCN2)C1 (configuration not stated) and report it.
OUT: 68

IN: Find the recorded G30 belonging to CCN1CCN(Cc2ccccc2Cl)C(C2=NCCN2)C1 (configuration not stated) and report it.
OUT: 38

----------
Give measured G30 for each item. Keep answers brief.
Test system: Rattus norvegicus
test method notes: The glycemia values 30 minutes after glucose administration to streptozotocin rats
Assay type: functional
Hi! Could you send only the number? It should be in %, unit omitted.

IN: Find the recorded G30 belonging to CN1CCN(Cc2cccc(Cl)c2Cl)C(C2=NCCN2)C1 (stereo unspecified) and report it.
OUT: 36

IN: Find the recorded G30 belonging to COc1cccc(CN2CCN(C)CC2C2=NCCN2)c1 (stereo unspecified) and report it.
OUT: 68

IN: Find the recorded G30 belonging to CN1CCN(Cc2cccc(Cl)c2)C(C2=NCCN2)C1 (stereo unspecified) and report it.
OUT: 23

IN: Find the recorded G30 belonging to CC(C)N1CCN(Cc2ccccc2Cl)C(C2=NCCN2)C1 (stereo unspecified) and report it.
OUT: 83

IN: Find the recorded G30 belonging to COc1cccc(CN2CCN(C)CC2C2=NCCN2)c1OC (stereo unspecified) and report it.
OUT: 58

IN: Find the recorded G30 belonging to c1ccc(C(CC2=NCCN2)c2ccccn2)cc1 (stereo unspecified) and report it.
OUT: 121

----------
Tested on: Rattus norvegicus
test method notes: The incremental glycemia values after glucose administration (0.5 g/kg iv), to rats treated with streptozotocin (35 mg/kg iv)
Assay type: functional
Give measured Delta G for each item. Keep answers brief.
Hi! Could you send only the number? It should be in %, unit omitted.

IN: Find the recorded Delta G belonging to Clc1ccccc1CN1CCNCC1C1=NCCN1 (stereo unspecified) and report it.
OUT: 0

IN: Find the recorded Delta G belonging to CN1CCN(Cc2cccc(Cl)c2)C(C2=NCCN2)C1 (stereo unspecified) and report it.
OUT: 0

IN: Find the recorded Delta G belonging to CN1CCN(Cc2ccccc2C(F)(F)F)C(C2=NCCN2)C1 (stereo unspecified) and report it.
OUT: 94

IN: Find the recorded Delta G belonging to CN1CCN(Cc2ccccc2)C(C2=NCCN2)C1 (stereo unspecified) and report it.
OUT: 0

IN: Find the recorded Delta G belonging to CN1CCN(Cc2cccc(Cl)c2Cl)C(C2=NCCN2)C1 (stereo unspecified) and report it.
OUT: 0

IN: Find the recorded Delta G belonging to COc1cccc(CN2CCN(C)CC2C2=NCCN2)c1OC (stereo unspecified) and report it.
OUT: 0

IN: Find the recorded Delta G belonging to c1ccc2c(c1)OCC(C1=NCCN1)O2 (stereo unspecified) [IDAZOXAN] and report it.
OUT: 8

IN: Find the recorded Delta G belonging to Clc1ccc(CN2CCN(Cc3ccc(Cl)cc3Cl)C(C3=NCCN3)C2)c(Cl)c1 (stereo unspecified) and report it.
OUT: 0

IN: Find the recorded Delta G belonging to CC(C)N1CCN(Cc2ccccc2Cl)CC1C1=NCCN1 (stereo unspecified) and report it.
OUT: 112

IN: Find the recorded Delta G belonging to c1ccc(C(CC2=NCCN2)c2ccccn2)cc1 (stereo unspecified) [MIDAGLIZOLE] and report it.
OUT: 32

IN: Find the recorded Delta G belonging to COc1cccc(CN2CCN(C)CC2C2=NCCN2)c1 (stereo unspecified) and report it.
OUT: 23

IN: Find the recorded Delta G belonging to CN1CCN(Cc2ccc(Cl)cc2Cl)C(C2=NCCN2)C1 (stereo unspecified) and report it.
OUT: 105

IN: Find the recorded Delta G belonging to CN1CCN(Cc2cc(Cl)cc(Cl)c2)C(C2=NCCN2)C1 (stereo unspecified) and report it.
OUT: 0

IN: Find the recorded Delta G belonging to COc1ccccc1CN1CCN(C)CC1C1=NCCN1 (stereo unspecified) and report it.
OUT: 47

IN: Find the recorded Delta G belonging to CCN1CCN(Cc2ccccc2Cl)CC1C1=NCCN1 (stereo unspecified) and report it.
OUT: 70

IN: Find the recorded Delta G belonging to Clc1ccccc1CN1CCN(Cc2ccccc2Cl)C(C2=NCCN2)C1 (stereo unspecified) and report it.
OUT: 0

IN: Find the recorded Delta G belonging to CN1CCN(Cc2ccccc2F)C(C2=NCCN2)C1 (stereo unspecified) and report it.
OUT: 72

IN: Find the recorded Delta G belonging to CC(C)N1CCN(Cc2ccccc2Cl)C(C2=NCCN2)C1 (stereo unspecified) and report it.
OUT: 84

IN: Find the recorded Delta G belonging to Cc1ccccc1CN1CCN(C)CC1C1=NCCN1 (stereo unspecified) and report it.
OUT: 24

IN: Find the recorded Delta G belonging to CCN1CCN(Cc2ccccc2Cl)C(C2=NCCN2)C1 (stereo unspecified) and report it.
OUT: 108

IN: Find the recorded Delta G belonging to CC(C)CN1CCN(Cc2ccc(Cl)cc2Cl)C(C2=NCCN2)C1 (stereo unspecified) and report it.
OUT: 110

IN: Find the recorded Delta G belonging to CN1CCN(Cc2ccccc2Cl)C(C2=NCCN2)C1 (stereo unspecified) and report it.
OUT: 81

IN: Find the recorded Delta G belonging to CN1CCN(Cc2ccccc2Cl)CC1C1=NCCN1 (stereo unspecified) and report it.
OUT: 93

IN: Find the recorded Delta G belonging to CN1CCN(Cc2ccc(Cl)cc2Cl)CC1C1=NCCN1 (stereo unspecified) and report it.
OUT: 34

IN: Find the recorded Delta G belonging to CCCN1CCN(Cc2ccccc2Cl)C(C2=NCCN2)C1 (stereo unspecified) and report it.
OUT: 0

IN: Find the recorded Delta G belonging to c1ccc(CN2CCN(Cc3ccccc3)C(C3=NCCN3)C2)cc1 (stereo unspecified) and report it.
OUT: 0

IN: Find the recorded Delta G belonging to CN1CCN(Cc2ccc(F)cc2F)C(C2=NCCN2)C1 (stereo unspecified) and report it.
OUT: 102

IN: Find the recorded Delta G belonging to CN1CCN(Cc2ccc(Cl)cc2)C(C2=NCCN2)C1 (stereo unspecified) and report it.
OUT: 0

IN: Find the recorded Delta G belonging to CCCN1CCN(Cc2ccc(Cl)cc2Cl)C(C2=NCCN2)C1 (stereo unspecified) and report it.
OUT: 24

IN: Find the recorded Delta G belonging to CN1CCN(Cc2c(Cl)cccc2Cl)C(C2=NCCN2)C1 (stereo unspecified) and report it.
OUT: 103

IN: Find the recorded Delta G belonging to CN1CCN(Cc2ccc(Cl)c(Cl)c2)C(C2=NCCN2)C1 (stereo unspecified) and report it.
OUT: 36
